test: NCI Yeast Anticancer Drug Screen. Data for the cln2 rad14 strain (AID 165);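 further: 0% = growth equal to vehicle treated cultures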; details: S. cerevisiae cln2 rad14 strain, at 50.0 µM, hits give high values
Compounds without any hit were thinned out: in the full panel of roughly 79,000, 15% have a hit.
measured_metric: growth inhibition (%)

* CC(=O)c1ccc2c(ccc3ccccc32)c1O | -8.8
* COC(=O)/C(C)=C/C=C/C(OC)C(OC(N)=O)/C(C)=C/C(C)C(O)C(CC(C)CC1=C(OC)C(=O)C=C(N)C1=O)OC (stereo not given) | 9.3
* Cc1c(F)c(F)c(-c2c(F)c(F)c(C)c(F)c2F)c(F)c1F | 8.3
* NC(CCCO)C(=O)O (stereo not given) | 8.6
* Cn1cnc([N+](=O)[O-])c1Sc1ccccc1C(=O)O | 23.6
* COc1ccccc1CC(=O)O | 17.3
* CCc1n[nH]c(=O)n1NC(=O)/C=C\C(=O)O | -17.7
* CC(=O)Nc1ccc2ccccc2c1 | -25.1
* CCN(Cc1cccc(S(=O)(=O)O)c1)c1ccc(C(=C2C=CC(=[N+](CC)Cc3cccc(S(=O)(=O)O)c3)C=C2)c2ccc(O)cc2S(=O)(=O)O)cc1 | -110
* COC1OC(COS(C)(=O)=O)C2OC(C)(C)OC12 (stereo not given) | 11.6
* COc1cc2c(cc1OC)C(=O)CC2 | -5.25
* CC(=O)c1cccc(NC(=O)Nc2cccc3ccccc23)c1 | 2.75
* Cc1ncc2c(n1)NC(c1ccc([N+](=O)[O-])cc1)NC2 (stereo not given) | -3.7
* CC(C)c1ccc2c(c1)C=C1OC(=O)[C@]3(C)CCC[C@@]2(C)C13 (stereo not given in full) | 40
* c1csc(-c2nn3c(C45CC6CC(CC(C6)C4)C5)nnc3s2)c1 | -11.3
* CCOC(=O)NC(CC)CO (stereo not given) | 16.1
* CC1=C/C(=N/NS(=O)(=O)c2ccc(C)cc2)CC(C)(C)C1 | -22.3
* CCN(CC)CCCNc1c2c(nc3c(OC)cccc13)CCCC2 | -41.6
* C/C(=N/NC(N)=O)C(=O)O | -48.4
* COc1ccc(/C=N/Nc2nc3ccccc3c(=O)n2-c2ccccc2)c(OCc2ccccc2)c1 | -0.1
* ClCCOC(CCl)OCCCl | 20.4
* CC1(O)CCCCCCC1 | 0.7
* CC1=N/C(=C/c2ccc3c(c2)OCO3)C(=O)O1 | -24.9
* O=CC1(CCc2ccccc2)NC(=O)NC1=O (stereo not given) | -18.9
* CC(C)C(C)NC(=O)C(C)(C)C(C)(C)C (stereo not given) | -11.2
